Data origin: ChEMBL document CHEMBL1833800

TARGET ENTITY: Disintegrin and metalloproteinase domain-containing protein 17 (Homo sapiens, UniProt P78536)
Sequence (P78536 whole entry, the tested form may be a part): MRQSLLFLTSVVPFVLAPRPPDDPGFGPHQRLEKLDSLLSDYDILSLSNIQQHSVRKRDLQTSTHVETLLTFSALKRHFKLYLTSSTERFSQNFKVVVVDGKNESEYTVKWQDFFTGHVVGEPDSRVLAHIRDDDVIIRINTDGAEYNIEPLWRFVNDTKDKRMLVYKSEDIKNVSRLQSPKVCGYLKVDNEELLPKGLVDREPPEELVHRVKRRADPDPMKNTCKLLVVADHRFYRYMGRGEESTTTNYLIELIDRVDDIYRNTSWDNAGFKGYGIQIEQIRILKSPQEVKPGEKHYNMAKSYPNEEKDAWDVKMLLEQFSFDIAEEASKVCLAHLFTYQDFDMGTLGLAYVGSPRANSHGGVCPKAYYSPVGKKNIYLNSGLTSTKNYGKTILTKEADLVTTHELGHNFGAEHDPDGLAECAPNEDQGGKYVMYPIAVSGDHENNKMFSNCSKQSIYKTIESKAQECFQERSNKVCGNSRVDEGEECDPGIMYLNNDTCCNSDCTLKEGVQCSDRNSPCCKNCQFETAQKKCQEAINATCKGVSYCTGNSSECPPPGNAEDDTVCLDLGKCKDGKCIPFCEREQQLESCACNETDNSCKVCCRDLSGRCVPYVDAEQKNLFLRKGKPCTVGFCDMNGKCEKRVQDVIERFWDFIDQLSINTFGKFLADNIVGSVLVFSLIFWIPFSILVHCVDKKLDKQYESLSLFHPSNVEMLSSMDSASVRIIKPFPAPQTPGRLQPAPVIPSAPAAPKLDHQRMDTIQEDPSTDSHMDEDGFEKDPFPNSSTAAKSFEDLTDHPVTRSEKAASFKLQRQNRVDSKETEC
EXPERIMENTAL PROTOCOL: Inhibition of TACE in human whole blood assessed as reduction of LPS-induced TNFalpha production pretreated 15 mins before LPS challenge measured 5 hrs post LPS challenge
Each item that follows carries a reported IC50.

{"columns": ["COMPOUND", "IC50"],
 "data": [
  ["O=C(N[C@@H]1CCC[C@@H]1C(=O)NO)c1ccc(Cn2c(C(F)(F)F)nc3ccccc32)nc1 (single isomer, unassigned)", "74 nM"],
  ["O=C(N[C@@H]1CCOC[C@@H]1C(=O)NO)c1ccc(Cn2c(C(F)(F)F)nc3ccccc32)nc1", "160 nM"],
  ["Cc1nc2ccccc2n1Cc1ccc(C(=O)N[C@@H]2CCOC[C@@H]2C(=O)NO)cn1", "80 nM"],
  ["Cc1nc2ccccc2n1Cc1ccc(C(=O)N[C@@H]2CCC[C@@H]2C(=O)NO)cn1 (single isomer, unassigned)", "70 nM"],
  ["Cc1nc2ccccc2n1Cc1ccc(C(=O)N[C@@H]2CCCC[C@@H]2C(=O)NO)cn1", "126 nM"],
  ["O=C(N[C@@H]1CCCC[C@@H]1C(=O)NO)c1ccc(Cn2c(C(F)(F)F)nc3ccccc32)nc1", "280 nM"]
]}
